measured target: Adenosine receptor A1 (Homo sapiens, UniProt P30542)
Sequence (P30542 whole entry): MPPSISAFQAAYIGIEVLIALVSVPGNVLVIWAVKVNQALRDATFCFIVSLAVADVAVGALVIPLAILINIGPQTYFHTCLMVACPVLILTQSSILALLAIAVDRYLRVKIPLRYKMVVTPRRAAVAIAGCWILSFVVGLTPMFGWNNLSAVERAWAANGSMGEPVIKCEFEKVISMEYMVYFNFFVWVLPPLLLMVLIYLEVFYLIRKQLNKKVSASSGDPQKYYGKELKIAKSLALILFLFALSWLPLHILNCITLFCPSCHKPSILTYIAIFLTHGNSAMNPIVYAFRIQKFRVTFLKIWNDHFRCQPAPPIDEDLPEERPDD
method description: Inverse agonist activity at recombinant human adenosine A1 receptor expressed in CHO cell membranes assessed as […] of [35S]GTPgammaS binding preincubated for 30 mins followed by [35S]GTPgammaS addition measured after 90 mins by beta scintillation counting method
measure: EC50 (nM)

I. O[C@H]1CC[C@H](Nc2ncc(-c3ccc4ccccc4c3)c(-c3ccccc3)n2)CC1
II. O[C@H]1CC[C@H](Nc2ncc(-c3cccc(Cl)c3)c(-c3ccccc3)n2)CC1
API: POST /compare with I and II ; response names the item with higher EC50. Field: selected label. Fill in the label of the entry you choose.
II
(II: 278 nM, I: 166 nM)
